- Test Target: T1, IL-18 receptors on HEK-Blue IL-18 reporter cells (UniProt Q13478 19-541; O95256 20-599, limits assumed); also: unit not given here
- T1 sequence (looked up) 1: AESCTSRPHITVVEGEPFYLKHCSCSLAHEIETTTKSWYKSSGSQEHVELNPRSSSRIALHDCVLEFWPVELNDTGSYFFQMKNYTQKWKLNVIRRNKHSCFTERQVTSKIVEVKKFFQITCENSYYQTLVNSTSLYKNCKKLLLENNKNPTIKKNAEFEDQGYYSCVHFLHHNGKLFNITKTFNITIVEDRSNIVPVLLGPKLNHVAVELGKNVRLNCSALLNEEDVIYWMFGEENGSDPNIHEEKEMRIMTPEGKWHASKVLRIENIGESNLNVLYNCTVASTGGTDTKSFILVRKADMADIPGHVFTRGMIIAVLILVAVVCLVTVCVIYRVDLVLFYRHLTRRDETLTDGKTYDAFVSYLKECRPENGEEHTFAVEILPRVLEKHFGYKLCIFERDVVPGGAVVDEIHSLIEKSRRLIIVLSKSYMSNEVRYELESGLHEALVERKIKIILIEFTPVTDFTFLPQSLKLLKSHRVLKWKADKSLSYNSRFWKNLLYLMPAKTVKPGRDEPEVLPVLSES
- T1 sequence (looked up) 2: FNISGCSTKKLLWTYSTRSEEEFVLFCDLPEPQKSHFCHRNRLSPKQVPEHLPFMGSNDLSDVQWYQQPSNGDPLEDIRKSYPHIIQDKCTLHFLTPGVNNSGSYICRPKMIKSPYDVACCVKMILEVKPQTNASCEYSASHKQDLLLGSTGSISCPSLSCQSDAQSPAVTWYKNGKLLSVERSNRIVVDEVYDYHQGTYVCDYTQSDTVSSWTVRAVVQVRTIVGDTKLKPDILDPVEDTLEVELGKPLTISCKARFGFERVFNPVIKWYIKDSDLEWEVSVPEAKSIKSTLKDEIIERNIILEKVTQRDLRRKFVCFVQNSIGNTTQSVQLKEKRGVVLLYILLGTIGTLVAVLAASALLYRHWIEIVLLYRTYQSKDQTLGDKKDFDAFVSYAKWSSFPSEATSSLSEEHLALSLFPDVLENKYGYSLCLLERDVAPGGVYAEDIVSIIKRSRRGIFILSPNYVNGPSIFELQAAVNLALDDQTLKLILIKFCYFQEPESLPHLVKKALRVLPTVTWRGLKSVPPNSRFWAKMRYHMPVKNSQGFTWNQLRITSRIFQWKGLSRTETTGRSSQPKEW
- Test Details: cell-based or functional assay
Observable: Activity, No BP, DF-100000

Worked cases, Activity, No BP, DF-100000 given:
- Binder: "IL-18 variant G3P, E6S, K53R, D54Y, S55P, T63I, N91K (ligand) YFPKLSSKLSVIRNLNDQVLFIDQGNRPLFEDMTDSDMRDNAPRTIFIISMYRYPQPRGMAVIISVKSEKISTLSSENKIISFKEMNPPDKIKDTKSDIIFFQRSVPGHDNKMQFESSSYEGYFLASEKERDLFKLILKKEDELGDRSIMFTVQNED"
  Activity, No BP, DF-100000: 0.15
- Binder: "IL-18 variant G3I, E6D, D54A, S55F, N91Y, R104H (ligand) YFIKLDSKLSVIRNLNDQVLFIDQGNRPLFEDMTDSDMRDNAPRTIFIISMYKAFQPRGMAVTISVKSEKISTLSSENKIISFKEMNPPDYIKDTKSDIIFFQHSVPGHDNKMQFESSSYEGYFLASEKERDLFKLILKKEDELGDRSIMFTVQNED"
  Activity, No BP, DF-100000: 2.1

Now consider a different binder.
Query :: # Activity, No BP, DF-100000 lookup, item IL-18 variant G3Q, E6N, D54Y, S55P, T63S, N91S, R104H (ligand) YFQKLNSKLSVIRNLNDQVLFIDQGNRPLFEDMTDSDMRDNAPRTIFIISMYKYPQPRGMAVSISVKSEKISTLSSENKIISFKEMNPPDSIKDTKSDIIFFQHSVPGHDNKMQFESSSYEGYFLASEKERDLFKLILKKEDELGDRSIMFTVQNED
Result :: 1.37
